# TEST: Cytotoxicity assay (XTT) in TZM-GFP cells
# Format: cell-based
# CONDITIONS USED: human, mean ± SD, read-out: CC50 (concentration of compound causing 50% cell death)
READOUT TYPE: CC50 at 72 h

Answered cases to consult:
[
  {
    "SMILES CODE": "COc1ccc2[nH]cc(CC(=O)N[C@@H](Cc3ccccc3)c3ncccc3-c3ccc(Br)cc3)c2c1",
    "CC50 at 72 h": "40 µM"
  },
  {
    "SMILES CODE": "CCn1cc(CC(=O)N[C@@H](Cc2ccccc2)c2ncccc2-c2ccc(Cl)cc2)c2ccccc21",
    "CC50 at 72 h": "41 µM"
  },
  {
    "SMILES CODE": "COc1ccc2[nH]cc(CC(=O)N[C@@H](Cc3ccccc3)c3ncccc3-c3ccc(Cl)cc3)c2c1",
    "CC50 at 72 h": "39 µM"
  },
  {
    "SMILES CODE": "O=C(Cn1ncc2ccccc21)N[C@@H](Cc1ccccc1)c1ncccc1-c1ccccc1",
    "CC50 at 72 h": "< 50 µM"
  },
  {
    "SMILES CODE": "Cc1[nH]c2ccccc2c1CC(=O)N[C@H](Cc1ccccc1)c1ncccc1-c1ccccc1",
    "CC50 at 72 h": "< 50 µM"
  }
]

Given "O=C(Cc1c[nH]c2ccccc12)N[C@@H](Cc1ccccc1)C(=O)N1CCCc2ccccc21" , state its recorded CC50 at 72 h.
> 50 µM

Given "O=C(Cc1c[nH]c2ccccc12)N[C@@H](Cc1ccccc1)c1ncccc1-c1ccc(Cl)cc1" , state its recorded CC50 at 72 h.
22 µM

Given "COc1ccc2[nH]cc(CC(=O)N[C@@H](Cc3ccccc3)c3nccn3-c3ccc(Br)cc3)c2c1" , state its recorded CC50 at 72 h.
> 100 µM

Given "O=C(Cn1ncc2ccccc21)N[C@H](Cc1ccccc1)c1ncccc1-c1ccccc1" , state its recorded CC50 at 72 h.
< 50 µM

Given "O=C(Cn1cccn1)N[C@H](Cc1ccccc1)c1ncccc1-c1cccc2cn[nH]c12" , state its recorded CC50 at 72 h.
> 50 µM

Given "Cc1[nH]c2ccccc2c1CC(=O)N[C@@H](Cc1ccccc1)c1nccn1-c1ccccc1" , state its recorded CC50 at 72 h.
> 50 µM

Given "O=C(Cc1c[nH]c2ccc(O)cc12)N[C@@H](Cc1ccccc1)c1ncccc1-c1ccc(Cl)cc1" , state its recorded CC50 at 72 h.
44 µM

Given "Cc1[nH]c2ccccc2c1CC(=O)N[C@@H](Cc1ccccc1)c1nccn1-c1ccc(C#N)cc1" , state its recorded CC50 at 72 h.
> 50 µM

Given "Cc1[nH]c2ccccc2c1CC(=O)N[C@@H](Cc1ccccc1)c1ncccc1-c1cccc(C#N)c1" , state its recorded CC50 at 72 h.
> 50 µM

Given "COc1ccc2[nH]cc(CC(=O)N[C@@H](Cc3ccccc3)c3nccn3-c3ccc(Cl)cc3)c2c1" , state its recorded CC50 at 72 h.
93 µM

Given "O=C(Cc1c[nH]c2ccccc12)N[C@@H](Cc1ccccc1)C(=O)N1CCc2ccccc21" , state its recorded CC50 at 72 h.
> 100 µM
